ASSAY_NAME: Turbidimetric kinetic aqueous solubility (NIVA-CYPI-KS)
Format: physicochemical
CONDITION_SUMMARY: potassium phosphate buffer, 37 °C, pH 7.4, aqueous buffer, kinetic from dmso stock, potassium phosphate buffer pH 7.4, 2 h, turbidimetry 620 nm, read-out: Solubility Range Upper bound
ASSAY_METRIC: solubility at 2 h

Given item Clc1ccccc1C(c1ccccc1)(c1ccccc1)n1ccnc1 , the value recorded as its solubility at 2 h is 10.3 µM

Given item CC[C@H]1OC(=O)[C@H](C)[C@@H](O[C@H]2C[C@@](C)(OC)[C@@H](O)[C@H](C)O2)[C@H](C)[C@@H](O[C@@H]2O[C@H](C)C[C@H](N(C)C)[C@H]2O)[C@](C)(O)C[C@@H](C)CN(C)[C@H](C)[C@@H](O)[C@]1(C)O , the value recorded as its solubility at 2 h is > 86 µM

Given item CC[C@H]1OC(=O)[C@H](C)[C@@H](O[C@H]2C[C@@](C)(OC)[C@@H](O)[C@H](C)O2)[C@H](C)[C@@H](O[C@@H]2O[C@H](C)C[C@H](N(C)C)[C@H]2O)[C@](C)(O)C[C@@H](C)/C(=N\OCOCCOC)[C@H](C)[C@@H](O)[C@]1(C)O , the value recorded as its solubility at 2 h is > 86 µM

Would you mind giving solubility at 2 h for every molecule in the list below?
1. CC[C@H]1OC(=O)[C@H](C)[C@@H](O[C@H]2C[C@@](C)(OC)[C@@H](O)[C@H](C)O2)[C@H](C)[C@@H](O[C@@H]2O[C@H](C)C[C@H](N(C)C)[C@H]2O)[C@](C)(O)C[C@@H](C)C(=O)[C@H](C)[C@@H](O)[C@]1(C)O
2. Clc1ccc(COC(Cn2ccnc2)c2ccc(Cl)cc2Cl)c(Cl)c1 (stereo not drawn)
3. CC[C@H]1OC(=O)[C@H](C)[C@@H](O[C@H]2C[C@@](C)(OC)[C@@H](O)[C@H](C)O2)[C@H](C)[C@@H](O[C@@H]2O[C@H](C)C[C@H](N(C)C)[C@H]2O)[C@](C)(OC)C[C@@H](C)C(=O)[C@H](C)[C@@H](O)[C@]1(C)O

1. > 86 µM
2. 34.5 µM
3. > 86 µM
